biological target: menin/MLL (terbium chelate-labeled menin, FITC-MBM1 peptide) (Homo sapiens (Human), UniProt O00255); experiment: Menin/MLL homogenous time-resolved fluorescence (HTRF) assay; type: binding; conditions: HTRF-30 min incubation IC50, 30 min incubation;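 also: IC50 from percent inhibition of HTRF signal, normalized between wells without competitor and wells with a saturating competitor that displaces FITC-MBM1 from His-tagged menin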
Sequence (O00255 other isoform, or with tags, fused parts or gaps): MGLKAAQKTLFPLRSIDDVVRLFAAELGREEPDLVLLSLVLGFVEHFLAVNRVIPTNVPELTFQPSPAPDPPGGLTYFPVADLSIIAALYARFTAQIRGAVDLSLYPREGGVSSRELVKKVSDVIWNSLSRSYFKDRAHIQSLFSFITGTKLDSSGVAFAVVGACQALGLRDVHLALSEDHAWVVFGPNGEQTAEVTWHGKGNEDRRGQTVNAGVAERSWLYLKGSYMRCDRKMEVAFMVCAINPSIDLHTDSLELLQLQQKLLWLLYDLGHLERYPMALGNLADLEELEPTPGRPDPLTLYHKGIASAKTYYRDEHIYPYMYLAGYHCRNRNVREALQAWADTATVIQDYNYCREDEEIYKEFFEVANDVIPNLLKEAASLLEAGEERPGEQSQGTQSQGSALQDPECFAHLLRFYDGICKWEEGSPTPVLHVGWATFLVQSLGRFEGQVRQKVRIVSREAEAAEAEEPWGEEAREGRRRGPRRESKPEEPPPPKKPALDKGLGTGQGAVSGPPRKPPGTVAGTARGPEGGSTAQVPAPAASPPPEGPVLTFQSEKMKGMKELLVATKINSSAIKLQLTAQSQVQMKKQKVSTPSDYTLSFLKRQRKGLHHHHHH
Counter-ions that a name gives are not always drawn.
For each entry below, report its log10(IC50) value.
Use the decimal logarithm of IC50 (nM).

For orientation, consider the following solved cases.
molecule	assayMetric	numericValue
CCN(C(=O)c1cc(F)ccc1Oc1nncnc1N1CCC2(C1)CN([C@H](CCCN(C)C[C@H](O)COC)C(C)C)C2)C(C)C [Compound 285, formate]	log10(IC50)	0.01
CCN(C(=O)c1cc(F)ccc1Oc1nncnc1N1CCC2(C1)CN([C@H](C[C@H](CN(C)C)OC)C(C)C)C2)C(C)C (single isomer, unassigned)	log10(IC50)	0.18
CCN(C(=O)c1cc(F)ccc1Oc1nncnc1N1CCC2(C1)CN([C@@H](C[C@@H](C)CN(C)CCOC)C(C)C)C2)C(C)C (single isomer, unassigned)	log10(IC50)	0.13
CCN(C(=O)c1cc(F)ccc1Oc1nncnc1N1CCC2(C1)CN([C@H](CCCN(C)CC(OC)OC)C(C)C)C2)C(C)C [Compound 150, fumarate]	log10(IC50)	-0.59
CCOCCN(C)CCC[C@H](C(C)C)N1CC2(CCN(c3ncnnc3Oc3ccc(F)cc3C(=O)N(CC)C(C)C)C2)C1 [Compound 258, oxalate]	log10(IC50)	-0.48
CCN(C(=O)c1cc(F)ccc1Oc1nncnc1N1CCC2(C1)CN([C@H](CCCNCCC(F)F)C(C)C)C2)C(C)C.O=C(O)/C=C/C(=O)O	log10(IC50)	-1.30
CCN(C(=O)c1cc(F)ccc1Oc1nncnc1N1CCC2(C1)CN([C@H](CCC(C)(C)NC(C)=O)C(C)C)C2)C(C)C (single isomer, unassigned)	log10(IC50)	-0.06
CCN(C(=O)c1cc(F)ccc1Oc1nncnc1N1CCC2(C1)CN([C@H](CCCNCC(OC)OC)C(C)C)C2)C(C)C.O=C(O)/C=C/C(=O)O [Compound 104, fumarate]	log10(IC50)	-1.13
CCN(C(=O)c1cc(F)ccc1Oc1nncnc1N1CCC2(C1)CN([C@@H](CCCNC(=O)NC)C(C)C)C2)C(C)C	log10(IC50)	1.65
CC(C)[C@@H](CCCN(C)C)N1CC2(CCN(c3ncnnc3Oc3ccc(F)cc3C(=O)N(C(C)C)C(C)C)C2)C1 (single isomer, unassigned) [Compound 102]	log10(IC50)	-0.96

For each entry beneath this line, provide reported log10(IC50).
1. CCN(C(=O)c1cc(F)ccc1Oc1nncnc1N1CCC2(C1)CN([C@H](CCC(C)(C)N)C(C)C)C2)C(C)C (single isomer, unassigned)
2. CCN(C(=O)c1cc(F)ccc1Oc1nncnc1N1CCC2(C1)CN(C(CCN)C(C)C)C2)C(C)C (stereo not drawn)

1: -1.17; 2: -0.55

Where these numbers come from: patent US12473295B2
